System: U-251
protocol-description: NCI tumour cell line growth inhibition, 48 h
Activity calls are given as the source filed them. Cut-off read from the data, not from the text of the source: active = GI50 up to about 1.1 µM and inactive = higher.
Possible outcomes: active, inactive

# compound, cat
measured = [
    ("CSC1=N/C(=C\\c2c[nH]c3ccccc23)C(=O)N1", "inactive"),
    ("CC(C)(C)[C@H]1NC(=O)CN1C(=O)OCc1ccccc1", "inactive"),
    ("O=C1O[C@H]2C3C4CCC(C4[C@@H]2I)[C@H]13 (stereo not given in full)", "inactive"),
    ("CNC(C)Cc1ccccc1O (stereo not given)", "inactive"),
    ("COc1ccc(CCc2ccc(O)c(C(=O)O)c2)cc1OC", "inactive"),
    ("N/C(=N\\c1ccccc1Cl)c1ccccc1N", "inactive"),
    ("NCCCC(N/C=C1/N=C(c2ccccc2)OC1=O)C(=O)O (stereo not given)", "inactive"),
    ("O=C1C2c3[nH]c4ccccc4c3[C@@H]3CCCCC3C2C(=O)N1c1ccccc1 (stereo not given in full)", "inactive"),
    ("COC1OC2COC1(OC)C1OC(C)(C)OC21 (stereo not given)", "inactive"),
    ("CC(C)(C)c1cc(/C=C2/NC(=O)NC2=O)cc(C(C)(C)C)c1O", "inactive"),
    ("Cc1c2c(cc3c1[nH]c1ccccc13)C(c1ccc(Cl)cc1)=NCC2", "active"),
    ("O=C1OC(=O)c2c1c(-c1ccccc1)cn2-c1ccc(Cl)cc1", "inactive"),
    ("COC(=O)C1=C(C)NC(C)=C([N+](=O)[O-])C1c1cccc(NO)c1 (stereo not given)", "inactive"),
    ("COC(=O)C1CCC(=O)C(Sc2ccccc2)C1 (stereo not given)", "inactive"),
    ("Cc1ccc(OCC2OC(n3cnc4c(Br)nc(Br)nc43)CC2Oc2ccc(C)cc2)cc1 (stereo not given)", "inactive"),
]

----------
Attribute: GI50
Tested on: DLD-1
protocol-description: NCI tumour cell line growth inhibition, 48 h
Activity calls are given as the source filed them. Cut-off read from the data, not from the text of the source: active = GI50 up to about 1.1 µM and inactive = higher.
measurement-kind: GI50

# molecule, test-system, measurement-kind, value-measured
data = [
    ("O=C1OC(=O)c2c1c(-c1ccccc1)cn2-c1ccc(Cl)cc1", "DLD-1", "GI50", "> 100 µM (inactive)"),
    ("Cc1ccc2[nH]c3c4c5ccccc5nc-4c[nH]c3c2c1", "DLD-1", "GI50", "15.5 µM (inactive)"),
    ("O=C1CCC(=O)c2c1c(O)c1ccncc1c2O", "DLD-1", "GI50", "13.7 µM (inactive)"),
    ("COc1nc(NC2OC(COC(C)=O)C(OC(C)=O)C(OC(C)=O)C2OC(C)=O)c(-c2csc(N)n2)c(=O)n1C (centres undefined)", "DLD-1", "GI50", "52.7 µM (inactive)"),
    ("CNC(C)Cc1ccccc1O (centres undefined)", "DLD-1", "GI50", "> 100 µM (inactive)"),
    ("O=C1C2c3[nH]c4ccccc4c3[C@@H]3CCCCC3C2C(=O)N1c1ccccc1 (some centres undefined)", "DLD-1", "GI50", "26.2 µM (inactive)"),
    ("Cn1c(=O)c2nc3sc4c(n3c2n(C)c1=O)C(=O)c1ccccc1C4=O", "DLD-1", "GI50", "> 100 µM (inactive)"),
    ("CN1CC[C@]2(C)c3cc(O)ccc3CC3CCCC1C32C (some centres undefined)", "DLD-1", "GI50", "> 100 µM (inactive)"),
    ("Cc1c2cc[n+](C)cc2c(C)c2c1[nH]c1ccccc12", "DLD-1", "GI50", "1.65 µM (inactive)"),
]
